This listing pairs compounds with measured MIC.
- Tested on: Candida albicans (azole drug-resistant strain) R357
- measurement.protocol: MIC assay (CLSI M27-A3), Candida albicans azole drug-resistant strain R357
- Format: cell-based
- experimental.context: Candida albicans; second batch; read-out: MIC, Candida albicans (azole drug-resistant strain) R357
- Description: After a test compound was serially diluted, an MIC (minimum inhibitory concentration) assay was performed on the standard Candida strain and an MEC (minimum effective concentration) assay on the standard Aspergillus strain. […] For echinocandin drugs, Aspergillus was incubated at 28° C. for 21-26 h, and then the MEC results were read. […]

[
  {
    "compound": "CCCCCOc1ccc(-c2ccc(-c3ccc(C(=O)N[C@H]4C[C@@H](O)[C@@H](O[C@H]5CC[N+](C)(C)C5)NC(=O)[C@@H]5[C@@H](O)[C@@H](C)CN5C(=O)[C@H]([C@@H](C)O)NC(=O)[C@H]([C@H](O)[C@@H](O)c5ccc(O)cc5)NC(=O)[C@@H]5C[C@@H](O)CN5C(=O)[C@H]([C@@H](C)O)NC4=O)cc3)cc2)cc1 [Example 26]",
    "test.system": "Candida albicans (azole drug-resistant strain) R357",
    "MIC (µg/mL)": 0.5
  },
  {
    "compound": "CCCCCOc1ccc(-c2ccc(-c3ccc(C(=O)N[C@H]4C[C@@H](O)[C@@H](O[C@@H](C)C[N+](C)(C)C)NC(=O)[C@@H]5[C@@H](O)[C@@H](C)CN5C(=O)[C@H]([C@@H](C)O)NC(=O)[C@H]([C@H](O)[C@@H](O)c5ccc(O)cc5)NC(=O)[C@@H]5C[C@@H](O)CN5C(=O)[C@H]([C@@H](C)O)NC4=O)cc3)cc2)cc1 [Example 24]",
    "test.system": "Candida albicans (azole drug-resistant strain) R357",
    "MIC (µg/mL)": 0.5
  },
  {
    "compound": "CCCCCOc1ccc(-c2ccc(-c3ccc(C(=O)N[C@H]4C[C@@H](O)[C@@H](O[C@@H]5CC[N+](C)(C)C5)NC(=O)[C@@H]5[C@@H](O)[C@@H](C)CN5C(=O)[C@H]([C@@H](C)O)NC(=O)[C@H]([C@H](O)[C@@H](O)c5ccc(O)cc5)NC(=O)[C@@H]5C[C@@H](O)CN5C(=O)[C@H]([C@@H](C)O)NC4=O)cc3)cc2)cc1 [Example 25]",
    "test.system": "Candida albicans (azole drug-resistant strain) R357",
    "MIC (µg/mL)": 0.25
  },
  {
    "compound": "CCCCCOc1ccc(-c2ccc(-c3ccc(C(=O)N[C@H]4C[C@@H](O)[C@@H](OC[C@H]5CCC[N+]5(C)C)NC(=O)[C@@H]5[C@@H](O)[C@@H](C)CN5C(=O)[C@H]([C@@H](C)O)NC(=O)[C@H]([C@H](O)[C@@H](O)c5ccc(O)cc5)NC(=O)[C@@H]5C[C@@H](O)CN5C(=O)[C@H]([C@@H](C)O)NC4=O)cc3)cc2)cc1 [Example 13]",
    "test.system": "Candida albicans (azole drug-resistant strain) R357",
    "MIC (µg/mL)": 0.5
  },
  {
    "compound": "CCCCCOc1ccc(-c2ccc(-c3ccc(C(=O)N[C@H]4C[C@@H](O)[C@@H](OC[C@H](C)[N+](C)(C)C)NC(=O)[C@@H]5[C@@H](O)[C@@H](C)CN5C(=O)[C@H]([C@@H](C)O)NC(=O)[C@H]([C@H](O)[C@@H](O)c5ccc(O)cc5)NC(=O)[C@@H]5C[C@@H](O)CN5C(=O)[C@H]([C@@H](C)O)NC4=O)cc3)cc2)cc1 [Example 22]",
    "test.system": "Candida albicans (azole drug-resistant strain) R357",
    "MIC (µg/mL)": 0.5
  },
  {
    "compound": "CCCCCOc1ccc(-c2ccc(-c3ccc(C(=O)N[C@H]4C[C@@H](O)[C@@H](OC[C@@H](C)[N+](C)(C)C)NC(=O)[C@@H]5[C@@H](O)[C@@H](C)CN5C(=O)[C@H]([C@@H](C)O)NC(=O)[C@H]([C@H](O)[C@@H](O)c5ccc(O)cc5)NC(=O)[C@@H]5C[C@@H](O)CN5C(=O)[C@H]([C@@H](C)O)NC4=O)cc3)cc2)cc1 [Example 23]",
    "test.system": "Candida albicans (azole drug-resistant strain) R357",
    "MIC (µg/mL)": 0.25
  }
]

Value source: patent US12466856B2
